Data provenance: patent US10273233B2

- Measurement protocol: physchem
- Conditions: pH 5.03, water, thermodynamic from solid
Readout kind: solubility at 5 days (µg/mL)
The reply should be a number in µg/mL, with the unit left off.

Which solubility at 5 days is listed for CC(C)(C)[C@@H](CC(=O)O)Nc1nc(-c2c[nH]c3ncc(F)cc23)ncc1F [Hydrate 1 of Compound (1)] ?
98

* * *

Please go through the items and note down their pEC50.
- System: A/Henan/Jinshui/147/2007
- Measurement protocol: 3-day CP assay in MDCK cells
- Assay type: cell-based
- Conditions: Influenza A virus
// pEC50: -log10(molar conc.)

Which pEC50 is listed for NC(=O)c1nc(F)c[nH]c1=O [Compound T-705, favipiravir] ?
5.21

One more molecule: CC(C)(C)[C@@H](CC(=O)O)Nc1nc(-c2c[nH]c3ncc(F)cc23)ncc1F [Compound (1)]
7.72
